# target: Metabotropic glutamate receptor 5 (Rattus norvegicus)
# experiment notes: Inverse agonist activity at rat mGluR5 expressed in HEK293A cells coexpressing Gqalpha assessed as inhibition of quisqualic-induced D-myo-inositol 1 production by ELISA
# Type: functional, cell-based
# condition description: HEK293-A

[
  {
    "smiles data": "Cc1cccc(C#Cc2ccccc2)n1",
    "inhibition": "Dose-dependent effect"
  },
  {
    "smiles data": "N#Cc1cc(F)cc(C#Cc2cccc(C#N)n2)c1",
    "inhibition": "Dose-dependent effect"
  },
  {
    "smiles data": "Cc1cccc(C#Cc2cc(F)cc(C#N)c2)n1",
    "inhibition": "Dose-dependent effect"
  },
  {
    "smiles data": "Cc1nc(C#Cc2cccnc2)cs1",
    "inhibition": "Dose-dependent effect"
  }
]

Cited source: ChEMBL document CHEMBL2086345
